target: Death-associated protein kinase 1 (Homo sapiens); details: at 0.1 µM;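 further: reported figure is the mean inhibition of DAPK1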
Measured quantity: inhibition (%)
State the answer as a number, implicitly in %.

Use the examples below as a reference point.
| Compound | Reported value |
| --- | --- |
| CCCN1CCC(c2ccc(Nc3nc(Nc4cc(F)ccc4C(N)=O)c4cc[nH]c4n3)c(OC)c2)CC1 | 3.52 |
| CCc1nn2ncccc2c1-c1ccnc(NC2CC2)n1 | 3.5 |
| Cc1cccc2c1NC(=O)/C2=N\Nc1ccc(S(N)(=O)=O)cc1 | 3.69 |
| CS(=O)(=O)CCNCc1ccc(-c2ccc3ncnc(Nc4ccc(OCc5ccccc5)c(C(F)(F)F)c4)c3c2)o1 | 12.8 |
| COc1ccc(-c2cc3c(N)ncnc3o2)cc1 | -1.84 |
| Fc1ccc(-c2nn3ccccc3c2-c2ccncc2)cc1 | 0.72 |

Look up inhibition for this compound: "COc1cc(N2CCN(C(C)C)CC2)ccc1Nc1nc(Nc2ccc(F)cc2C(N)=O)c2cc[nH]c2n1"
5.07

Look up inhibition for this compound: "COc1cc(Nc2nccc(Nc3ccc4c(C)n[nH]c4c3)n2)cc(OC)c1OC"
1.68

Look up inhibition for this compound: "CCn1c(-c2nonc2N)nc2c(C#CC(C)(C)O)ncc(OC3CCNCC3)c21"
4.3

Look up inhibition for this compound: "COc1ccc(CNC(=O)c2ccc(-c3cc(-c4nnc(C)o4)ccc3C)cc2)cc1"
9.67

Look up inhibition for this compound: "CC(C)COC(=O)c1ccc2c(c1)/C(=C/Nc1ccc(S(N)(=O)=O)cc1)C(=O)N2"
-2.01

Look up inhibition for this compound: "CCNC(=O)O[C@H]1CN[C@H](C#Cc2cc3ncnc(Nc4ccc(OCc5cccc(F)c5)c(Cl)c4)c3s2)C1"
3.17

Look up inhibition for this compound: "COc1cc2c(cc1Nc1nc(Nc3ccsc3C(N)=O)c3cc[nH]c3n1)N(C(=O)CN(C)C)CCC2(C)C"
-1.5

----------
# inhibition annotations
Molecular target: Phosphorylase b kinase gamma catalytic chain, liver/testis isoform (Homo sapiens);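 further: reported value is the mean inhibition of PHKG2 from the GSK_PKIS screening set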
Sequence (whole entry): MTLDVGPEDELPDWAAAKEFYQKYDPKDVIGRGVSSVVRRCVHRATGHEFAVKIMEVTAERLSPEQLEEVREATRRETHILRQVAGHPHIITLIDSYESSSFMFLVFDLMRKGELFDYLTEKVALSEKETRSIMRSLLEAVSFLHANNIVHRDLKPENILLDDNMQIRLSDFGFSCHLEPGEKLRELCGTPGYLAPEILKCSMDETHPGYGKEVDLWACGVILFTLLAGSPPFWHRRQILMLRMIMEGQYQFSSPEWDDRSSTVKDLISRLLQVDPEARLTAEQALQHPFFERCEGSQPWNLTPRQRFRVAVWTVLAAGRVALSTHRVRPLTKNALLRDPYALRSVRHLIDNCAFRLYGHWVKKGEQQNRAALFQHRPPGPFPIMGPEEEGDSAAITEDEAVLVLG
Conditions: at 1 µM
State the answer as a number, implicitly in %.

Use the examples below as a reference point.
| Line notation | Reported value |
| --- | --- |
| COc1ccc2c(-c3ccnc(Nc4cccc(OC(F)(F)F)c4)n3)cnn2n1 | 8.34 |
| Cc1cccc2c1NC(=O)/C2=N\Nc1ccc(S(N)(=O)=O)cc1 | 2.88 |
| CS(=O)(=O)CCNCc1coc(-c2ccc3ncnc(Nc4ccc(OCc5ccccc5)cc4)c3c2)c1 | 3.59 |
| COC(=O)c1sc(-n2cnc3cc(OC)c(OC)cc32)cc1OCc1ccccc1C(F)(F)F | 0.9 |
| CNC(=O)c1cc(-c2ccc(F)cc2)cc(-c2ccc(S(=O)(=O)N3CCCC3)cc2)c1N | 3.18 |

Look up inhibition for this compound: "Cc1ccc(O)cc1Nc1ccnc2cc(-c3ccccn3)ccc12"
2.55

Look up inhibition for this compound: "CCN(CC)S(=O)(=O)c1ccc(OC)c(Nc2ncc(-c3ccccc3)o2)c1"
2.3

Look up inhibition for this compound: "COc1cccc(-n2ncc3c(N/N=C/c4ccc(F)cc4)ncnc32)c1"
6.87

Look up inhibition for this compound: "CCn1c(-c2nonc2N)nc2c(C#CC(C)(C)O)ncc(OC3CCNCC3)c21"
3.58

Look up inhibition for this compound: "CCOc1ccc2c(-c3ccnc(Nc4cccc(C(F)(F)F)c4)n3)cnn2n1"
3.92

Look up inhibition for this compound: "Fc1ccc(-c2cc(-c3c[nH]nc3-c3ccccn3)ccn2)cc1"
8.42

Look up inhibition for this compound: "CC(=O)Nc1cccc(C#Cc2cncnc2Nc2ccc(OCc3cccc(F)c3)c(Cl)c2)c1"
1.55
